target: NADPH oxidase 4 (Homo sapiens); assay: NOX4-dependent H2O2 signal modulators, primary screen, NOX inhibitor project, cell-based, HEK293-NOX4, tetracycline-induced, Amplex Red fluorescence (AID 1160); conditions: 45 min, higher = more signal, called active from +8 up or from −8 down
Task for the reader: assign each of the following compounds its reported z-score.
Answers are plain numbers.

Use these answered entries as a reference point.
# compound, recordedNumber
data = [
    ("[N-]=[N+]=NCc1ccccc1C[C@@]1(C(=O)N2CCCCC2)N=C(c2ccc(OCCCO)cc2)O[C@@H]1c1ccccc1CN=[N+]=[N-]", -0.467),
    ("C=CCNC(=O)[C@H]1[C@@H]2C(=O)O[C@@H](c3ccccc3)[C@@H](c3ccccc3)N2[C@@H](c2ccc(OCCO)cc2)[C@]12C(=O)Nc1ccc(C#CCNC(N)=O)cc12", 0.286),
    ("CC1CC/C=C\\[C@H]2OC34C=CCN(C(C)(C)C)C(=O)[C@H]3N(C(CO)C(C)C)C(=O)[C@@H]4C2C(=O)O1 (stereo not given in full)", -0.568),
]

For the 4 compounds below, give their z-score values.
1. C=C(CCCC)C(=O)CC[C@@H](OC(=O)c1cccnc1)c1ccc(OCCO)cc1
2. COC(=O)C1=CC(CCCO)=CC(c2ccc(CN3CCCC3)cc2)N(Cc2cc3c(cc2Br)OCO3)C=C1C(=O)OC (stereo not given)
3. CC(C)CNC(=O)[C@@]1(C)c2ccccc2C(=O)N(Cc2cc(C(F)(F)F)cc(C(F)(F)F)c2)[C@H]1c1ccc(CO)cc1
4. [N-]=[N+]=Nc1ccccc1C[C@]1(C(=O)NCc2ccccc2)COC(c2ccc(OCCCO)cc2)=N1

OUTPUT:
[-0.918, -0.638, 0.596, -1.03]

Value sought for every listed compound: z-score.
1. CN(C)C(=O)[C@@]1(Cc2ccccc2N=[N+]=[N-])N=C(c2ccc(OCCCO)cc2)O[C@H]1c1ccccc1
2. Cc1nc2cc(Br)ccc2c(=O)n1Cc1cccc(O)c1
3. C=CCNC(=O)[C@H]1[C@@H]2C(=O)O[C@@H](c3ccccc3)[C@@H](c3ccccc3)N2[C@@H](c2ccc(O)cc2)[C@]12C(=O)N(C(=O)OCCOC)c1ccc(C#CCC(C(=O)OC)C(=O)OC)cc12

OUTPUT:
[0.711, -0.191, 1.14]

* * *

I'd appreciate it if you could supply z-score values for the items below.
target: NADPH oxidase 4 (Homo sapiens) (UniProt Q9NPH5); experiment: NOX4-dependent H2O2 signal modulators, primary screen, NOX inhibitor project, cell-based, HEK293-NOX4, tetracycline-induced, Amplex Red fluorescence (AID 1160); conditions: 45 min, higher = more signal, called active from +8 up or from −8 down
Sequence (Q9NPH5 whole entry, looked up): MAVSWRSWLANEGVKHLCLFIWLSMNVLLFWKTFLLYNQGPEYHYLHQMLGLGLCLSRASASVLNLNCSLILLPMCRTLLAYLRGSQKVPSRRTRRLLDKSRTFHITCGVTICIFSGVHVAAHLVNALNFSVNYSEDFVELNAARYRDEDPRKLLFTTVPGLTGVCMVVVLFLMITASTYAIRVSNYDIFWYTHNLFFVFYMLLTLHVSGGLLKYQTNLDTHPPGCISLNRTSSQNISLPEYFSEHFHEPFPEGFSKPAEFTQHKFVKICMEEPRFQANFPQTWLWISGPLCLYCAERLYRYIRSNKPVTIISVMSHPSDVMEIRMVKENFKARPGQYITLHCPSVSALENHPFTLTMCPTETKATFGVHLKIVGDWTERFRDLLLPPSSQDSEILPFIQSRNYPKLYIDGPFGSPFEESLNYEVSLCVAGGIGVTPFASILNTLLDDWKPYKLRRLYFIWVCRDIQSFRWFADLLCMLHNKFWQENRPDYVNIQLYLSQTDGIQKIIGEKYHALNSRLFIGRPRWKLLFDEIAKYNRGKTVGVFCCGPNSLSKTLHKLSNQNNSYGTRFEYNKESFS
Give bare numbers.

Below are worked cases with known answers.
# compound, z-score
data = [
    ("C[C@]1(C(=O)NCCN2CCOCC2)c2ccccc2C(=O)N(Cc2cc(F)cc(C(F)(F)F)c2)[C@H]1c1ccc(CO)cc1", 0.798),
    ("CN1C(=O)C2C=CC(C(O)c3cc(C(F)(F)F)cc(C(F)(F)F)c3)N(Nc3ccccc3)C2C1=O (stereo unspecified)", -4.95),
    ("CC(C)C[C@@H]1NC(=O)[C@H]2C[C@@H](C(=O)NCCCCCN)[C@@H](c3cccc(OCCO)c3)N2C1=O", 0.993),
    ("COCC(=C=CC[C@H](O)c1cccc(OCCO)c1)C[C@H](O)COCc1ccccc1", -0.797),
    ("O=C1C[C@@](C(=O)NCC(F)(F)F)(c2ccc([N+](=O)[O-])cc2)[C@@H](c2ccc(CO)cc2)N1CC12CC3CC(CC(C3)C1)C2", -3.52),
]

For each of the compounds below, note its z-score.
1. Cc1cccc([C@H]2C[C@H]3C(Br)=C[C@@H]2C(=O)[C@]32CO2)c1
2. COCC(=C=CC[C@@H](O)c1cccc(OCCO)c1)CCO
3. COC(=O)[C@@]1(Cc2ccc(OC)cc2)[C@H]2c3cc(C(=O)N4CCCC4)n(Cc4ccc(S(C)(=O)=O)cc4)c3C[C@H]2CN1C(=O)c1ccccc1

OUTPUT:
-0.00866
-0.761
-0.389

Provide reported z-score for each item, in the same order as listed.
1. CN(C)CCCNC(=O)[C@@H]1c2ccccc2C(=O)N(C2CCCCC2)[C@H]1c1ccc(CO)cc1
2. CCOC(=O)C[C@H]1[C@H](OC(=O)c2ccccc2-c2ccccc2)[C@@H](NC(=O)c2ccccc2)c2cc(OCCCO)ccc2N1C(=O)c1ccccc1
3. COc1ccc([Si](C)(C)[C@H]2[C@H](CCO)O[C@@]3(C(=O)N(Cc4ccc(N5C(=O)c6ccccc6Oc6ccccc65)cc4)c4ccccc43)[C@@H]2C)cc1

OUTPUT:
1. 0.197
2. 0.884
3. 2.36

* * *

assay: modulators of S6 phosphorylation in cells, primary screen, cell-based, A549, cytoblot, luminescence, serum-stimulated (AID 1158); details: A549 phospho-S6 cytoblot, 5 h, higher = more signal;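 further: serum-stimulated A549 lung adenocarcinoma cells; signal is phosphorylated S6 detected by cytoblot immunostaining with HRP secondary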
Respond with Condition met for z-score values of 0.3 and above, Condition not met for values below.

# smilesNotation, classAssignment
records = [
    ("COC(=O)[C@@]1(Cc2ccc(OC)cc2)[C@H]2c3cc(C(=O)N4CCCC4)n(Cc4ccc(OC(F)(F)F)cc4)c3C[C@H]2CN1C(=O)c1ccccc1", "Condition not met"),
    ("CCCCNC(=O)c1ccc(C#C[Si](C(C)C)(C(C)C)C(C)C)c(OC(C)=O)c1", "Condition not met"),
    ("CN(C)C(=O)[C@]1(CCS(=O)(=O)c2ccccc2)N=C(c2ccc(OCCCO)cc2)O[C@@H]1c1ccccc1", "Condition not met"),
    ("C=CCN1C(=O)[C@@]2(O[C@@H](CCO)[C@H]([Si](C)(C)c3ccc(OC)cc3)[C@H]2C)c2cc(N3CCOC3=O)ccc21", "Condition met"),
    ("[N-]=[N+]=NCc1ccccc1C[C@@]1(C(=O)N2CCCCC2)N=C(c2ccc(OCCCO)cc2)O[C@@H]1c1ccccc1CN=[N+]=[N-]", "Condition not met"),
]

INPUT: Has `CCCCC(=C=CC[C@H](O)c1ccc(OCCO)cc1)C[C@H](O)c1cc(Cl)cc(Cl)c1O` a recorded z-score greater than or equal to 0.3?
OUTPUT: Condition not met

INPUT: hey, is z-score for this one >= 0.3? `Cc1ccc(N2C(=O)c3ccccc3[C@](C)(C(=O)NCc3ccccc3)[C@@H]2c2ccc(CO)cc2)nc1`
OUTPUT: Condition met

INPUT: Can `CC(C)[Si]1(C(C)C)OCc2cc(-c3ccc(-c4ccc(Cl)c(Cl)c4)o3)nc(CCc3ccccc3)c21` be said to have z-score at or above 0.3?
OUTPUT: Condition met

INPUT: // inclusive: z-score at least 0.3? input: `C=C(/C(=C/C[C@@H](OC(=O)c1ccncc1)c1cccc(OCCO)c1)c1cnc2ccccc2c1)C(C)C`
OUTPUT: Condition not met

INPUT: Say whether `COCCOC(=O)N1C(=O)[C@@]2(c3cc(C#CCNC(N)=O)ccc31)[C@H](c1ccc(O)cc1)N1[C@H](c3ccccc3)[C@H](c3ccccc3)OC(=O)[C@H]1[C@@H]2C(N)=O` shows z-score of 0.3 or more.
OUTPUT: Condition not met

INPUT: Reported z-score at or above 0.3? `CC(C)CNC(=O)[C@@]1(C)c2ccccc2C(=O)N(Cc2cc(C(F)(F)F)cc(C(F)(F)F)c2)[C@H]1c1ccc(CO)cc1`
OUTPUT: Condition not met

INPUT: Hi team, for `O=C1C[C@@](C(=O)NCC(F)(F)F)(c2ccc([N+](=O)[O-])cc2)[C@@H](c2ccc(CO)cc2)N1CC12CC3CC(CC(C3)C1)C2` , is the recorded z-score at or above 0.3?
OUTPUT: Condition met

INPUT: Say whether `CCOC(=O)C=Cc1cc(F)ccc1O` shows z-score of 0.3 or more.
OUTPUT: Condition met

* * *

assay: Plasmodium falciparum growth inhibition, primary screen, strain 3D7, DAPI fluorescence, 100 nL (AID 1184);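 further: parasites grown inside human red blood cells in medium with human serum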; settings: P. falciparum 3D7 growth, 3 d, higher = more signal
readoutLabel: z-score
Answers are plain numbers.

Examples with their reported z-score follow.
# molecule, recordedNumber
measured = [
    ("C[C@@H]1ON(c2ccc(I)cc2)[C@H](c2ccc(OC(=O)OC(C)(C)C)cc2)[C@H]1C(=O)N1C(=O)OC[C@H]1Cc1ccccc1", -2.13),
    ("CC(C)c1ccc(NN2C(C(O)Cc3ccccc3)C=CC3C(=O)N(c4ccccc4)C(=O)C32)cc1 (centres undefined)", -0.0057),
]

Parameters: items (list). Returns: z-score for each item.
1. COC(=O)[C@@]1(Cc2ccc(OC)cc2)[C@H]2c3cc(C(=O)N4CCCC4)n(Cc4cc(C)n(C)n4)c3C[C@H]2CN1C(=O)c1ccccc1
2. COCCOC(=O)N1C(=O)[C@@]2(c3cc(C#CCC(C(=O)OC)C(=O)OC)ccc31)[C@H](C(=O)NC[C@H](O)c1ccccc1)[C@H]1C(=O)O[C@H](c3ccccc3)[C@H](c3ccccc3)N1[C@@H]2c1ccc(O)cc1

OUTPUT:
-1.44
-1.84

Source of measurements: PubChem BioAssay
